Consider the following compounds and their measured CCNE1 HIBIT PQ Max (%) readings.
# assay-system: CCNE1 (Homo sapiens, UniProt P24864+P24941)
# Construct: host or cells: HEK293
# method-description: CCNE1 HIBIT PQ (protein quantification), degradation
# Type: cell-based
# condition-description: Max = Maximum
reported-endpoint: CCNE1 HIBIT PQ Max (%)

compound="CC(C)Oc1c(-c2cn[nH]c2)ncn2nc(Nc3ccc(S(=O)(=O)c4cccc(C(C)N5CCN(c6ccc7c(N8CCC(=O)NC8=O)nn(C)c7c6)C6CC65)c4)cc3F)nc12 (centres unmarked)" assay_system="CCNE1 (Homo sapiens, UniProt P24864+P24941)" reported_endpoint="CCNE1 HIBIT PQ Max (%)" measurement=28
compound="CC(C)Oc1c(-c2cn[nH]c2)ncn2nc(Nc3c(F)cc(S(=O)(=O)N(C)CCCN4CCC(c5ccc6c(c5)n(C)c(=O)n6C5CCC(=O)NC5=O)CC4)cc3F)nc12 (racemic)" assay_system="CCNE1 (Homo sapiens, UniProt P24864+P24941)" reported_endpoint="CCNE1 HIBIT PQ Max (%)" measurement=86
compound="CC(C)Oc1c(-c2cn[nH]c2)ncn2nc(Nc3ccc(S(=O)(=O)c4cccc(CC5CC(c6ccc(C(=O)NC7CCC(=O)NC7=O)cc6)C5)c4)cc3F)nc12 (racemic)" assay_system="CCNE1 (Homo sapiens, UniProt P24864+P24941)" reported_endpoint="CCNE1 HIBIT PQ Max (%)" measurement=62
compound="CC(C)Oc1c(-c2cn[nH]c2)ncn2nc(Nc3ccc(S(=O)(=O)N(C)CCCN4CCN(c5ccc6c(c5)n(C)c(=O)n6C5CCC(=O)NC5=O)C[C@H]4C)cc3F)nc12 (some centres unmarked)" assay_system="CCNE1 (Homo sapiens, UniProt P24864+P24941)" reported_endpoint="CCNE1 HIBIT PQ Max (%)" measurement=66
compound=CC(C)Oc1c(-c2cn[nH]c2)ncn2nc(Nc3ccc(S(=O)(=O)c4cccc(CN5CCC(c6ccc7c(N8CCC(=O)NC8=O)nn(C)c7c6)CC5)c4)cc3F)nc12 assay_system="CCNE1 (Homo sapiens, UniProt P24864+P24941)" reported_endpoint="CCNE1 HIBIT PQ Max (%)" measurement=81
